Origin of the recorded values: ChEMBL document CHEMBL1255514

target or test system: Kappa-type opioid receptor (Homo sapiens)
Sequence (P41145 whole entry): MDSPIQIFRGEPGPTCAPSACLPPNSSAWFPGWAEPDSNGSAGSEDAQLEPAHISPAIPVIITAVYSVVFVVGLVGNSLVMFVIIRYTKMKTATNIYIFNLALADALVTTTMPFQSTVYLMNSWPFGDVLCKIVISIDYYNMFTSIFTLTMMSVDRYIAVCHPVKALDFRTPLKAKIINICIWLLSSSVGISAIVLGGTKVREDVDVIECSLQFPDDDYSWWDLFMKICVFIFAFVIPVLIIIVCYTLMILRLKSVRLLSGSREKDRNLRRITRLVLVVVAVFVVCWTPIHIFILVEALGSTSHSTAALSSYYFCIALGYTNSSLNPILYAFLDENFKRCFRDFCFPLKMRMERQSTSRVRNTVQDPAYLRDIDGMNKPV
outcome measure: pKi
Reminder that pKi is minus the log10 of a molar concentration.

### Prompt What measured pKi goes with "CC(C)[C@@H](CN1CC[C@@](C)(c2cccc(O)c2)[C@@H](C)C1)NC(=O)[C@H]1Cc2ccccc2CN1" ?
### Response 9.52

====

I'd be grateful if you could share measured Kp for these entries.
assay method text: Ratio of drug level in brain to plasma in Sprague-Dawley rat at 5 umol/kg, iv
Assay type: ADME, organism-based
settings: brain and plasma, read-out: BPR
I'd appreciate a reply containing only the number, no unit.

### Prompt What measured Kp goes with "NC(=O)c1cccc(O[C@@H]2C[C@H]3CC[C@@H](C2)N3CC2CCCCC2)c1" ?
### Response 5

### Prompt What do you get for "Cc1ccc(CN2[C@@H]3CC[C@H]2C[C@H](Oc2cccc(C(N)=O)c2)C3)s1" ?
### Response 4

====

assay method text: Intrinsic clearance in rat liver microsomes
Assay type: ADME, Microsome
outcome measure: microsomal CLint (µL/min/mg)
Unit µL/min/mg implied. Number only.

### Prompt What measured microsomal CLint goes with "Cc1ccc(CN2[C@@H]3CC[C@H]2C[C@H](Oc2cccc(C(N)=O)c2)C3)s1" ?
### Response 379

### Prompt What do you get for "Cc1ccc([C@@H](C)N2[C@@H]3CC[C@H]2C[C@H](Oc2cccc(C(N)=O)c2)C3)cn1" ?
### Response 14

### Prompt What do you get for "NC(=O)c1cccc(O[C@@H]2C[C@H]3CC[C@@H](C2)N3CC2CCCCC2)c1" ?
### Response 196

====

target or test system: Kappa-type opioid receptor (Homo sapiens)
assay method text: Antagonist activity at human kappa opioid receptor assessed as inhibition of dynorphin A-induced [35S]GTPgammaS binding
I'd be grateful if you could share measured pIC50 for these entries.
Reminder that pIC50 is minus the log10 of a molar concentration.

### Prompt What measured pIC50 goes with Cc1ccccc1C(C)N1[C@@H]2CC[C@H]1C[C@H](Oc1cccc(C(N)=O)c1)C2 (some centres undefined) ?
### Response 6.07

### Prompt What do you get for "C[C@H](c1ccccc1)N1[C@@H]2CC[C@H]1C[C@H](Oc1cccc(C(N)=O)c1)C2" ?
### Response 6.17

### Prompt What do you get for "NC(=O)c1cccc(O[C@@H]2C[C@H]3CC[C@@H](C2)N3CCc2ccccc2)c1" ?
### Response 6.12

### Prompt What do you get for "CC(C)(c1ccccc1)N1[C@@H]2CC[C@H]1C[C@H](Oc1cccc(C(N)=O)c1)C2" ?
### Response 4.88

### Prompt What do you get for "NC(=O)c1cccc(O[C@@H]2C[C@H]3CC[C@@H](C2)N3Cc2cccs2)c1" ?
### Response 6.67

### Prompt What do you get for "NC(=O)c1cccc(OC2CCN(Cc3ccccc3)CC2)c1" ?
### Response 6.23

### Prompt What do you get for "CC(C)[C@@H](CN1CC[C@@](C)(c2cccc(O)c2)[C@@H](C)C1)NC(=O)[C@H]1Cc2ccccc2CN1" ?
### Response 9.30

### Prompt What do you get for "Cn1cc(CN2[C@@H]3CC[C@H]2C[C@H](Oc2cccc(C(N)=O)c2)C3)cn1" ?
### Response 6.28

### Prompt What do you get for "NC(=O)c1cccc(O[C@@H]2C[C@H]3CC[C@@H](C2)N3Cc2ccc3c(c2)OCO3)c1" ?
### Response 7.96

====

target or test system: Delta-type opioid receptor (Homo sapiens)
Sequence (P41143 whole entry): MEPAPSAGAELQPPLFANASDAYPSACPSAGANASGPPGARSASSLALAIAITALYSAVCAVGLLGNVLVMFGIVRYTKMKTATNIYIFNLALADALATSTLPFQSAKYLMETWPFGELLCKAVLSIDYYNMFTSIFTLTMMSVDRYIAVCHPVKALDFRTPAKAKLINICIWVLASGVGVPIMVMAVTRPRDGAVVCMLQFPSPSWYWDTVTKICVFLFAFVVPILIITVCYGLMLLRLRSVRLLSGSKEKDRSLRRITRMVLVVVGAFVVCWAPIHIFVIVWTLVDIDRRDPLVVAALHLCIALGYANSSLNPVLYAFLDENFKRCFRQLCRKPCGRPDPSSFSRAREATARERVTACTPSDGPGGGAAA
assay method text: Antagonist activity at human delta opioid receptor assessed as inhibition of SNC80-stimulated [35S]GTPgammaS binding
outcome measure: IC50

### Prompt What measured IC50 goes with "NC(=O)c1cccc(OC2CCN(Cc3ccccc3)CC2)c1" ?
### Response > 30 µM

### Prompt What do you get for "Cn1cc(CN2[C@@H]3CC[C@H]2C[C@H](Oc2cccc(C(N)=O)c2)C3)cn1" ?
### Response > 27.3 µM

### Prompt What do you get for "Cc1ccccc1CN1[C@@H]2CC[C@H]1C[C@H](Oc1cccc(C(N)=O)c1)C2" ?
### Response > 30 µM

### Prompt What do you get for "NC(=O)c1cccc(O[C@@H]2C[C@H]3CC[C@@H](C2)N3Cc2cccs2)c1" ?
### Response > 30 µM

### Prompt What do you get for "O=C(Nc1cccc(NC(=O)c2cccc(N3CCOCC3)c2)c1)c1cccc(OC2CCN(CC3CC3)CC2)c1" ?
### Response > 30 µM

====

target or test system: UniProt P35372
assay method text: Antagonist activity at human mu opioid receptor assessed as inhibition of DAMGO-stimulated [35S]GTPgammaS binding
outcome measure: IC50 (µM)
Unit µM implied. Number only.

### Prompt What measured IC50 goes with "Cc1ccc(CN2[C@@H]3CC[C@H]2C[C@H](Oc2cccc(C(N)=O)c2)C3)o1" ?
### Response 10.9

### Prompt What do you get for "CS(=O)(=O)Cc1ccc(CN2[C@@H]3CC[C@H]2C[C@H](Oc2cccc(C(N)=O)c2)C3)cc1" ?
### Response 0.576

### Prompt What do you get for "Cn1cc(CN2[C@@H]3CC[C@H]2C[C@H](Oc2cccc(C(N)=O)c2)C3)cn1" ?
### Response 9.43

### Prompt What do you get for "NC(=O)c1cccc(O[C@@H]2C[C@H]3CC[C@@H](C2)N3C2CCCCC2)c1" ?
### Response 9.41

### Prompt What do you get for "CC(C)[C@@H](CN1CC[C@@](C)(c2cccc(O)c2)[C@@H](C)C1)NC(=O)[C@H]1Cc2ccccc2CN1" ?
### Response 0.041

### Prompt What do you get for "NC(=O)c1cccc(O[C@@H]2C[C@H]3CC[C@@H](C2)N3Cc2ccccn2)c1" ?
### Response 19

====

I'd be grateful if you could share measured IC50 for these entries.
target or test system: Delta-type opioid receptor (Homo sapiens)
assay method text: Antagonist activity at human delta opioid receptor assessed as inhibition of SNC80-stimulated [35S]GTPgammaS binding

### Prompt What measured IC50 goes with "NC(=O)c1cccc(O[C@@H]2C[C@H]3CC[C@@H](C2)N3Cc2ccccn2)c1" ?
### Response > 30 µM

### Prompt What do you get for "NC(=O)c1cccc(O[C@@H]2C[C@H]3CC[C@@H](C2)N3Cc2cccnc2)c1" ?
### Response > 21.9 µM

### Prompt What do you get for "NC(=O)c1cccc(O[C@@H]2C[C@H]3CC[C@@H](C2)N3Cc2ccncc2)c1" ?
### Response > 24.7 µM

### Prompt What do you get for "NC(=O)c1cccc(O[C@@H]2C[C@H]3CC[C@@H](C2)N3CC(=O)N2CCCC2)c1" ?
### Response > 30 µM

### Prompt What do you get for "NC(=O)c1cccc(O[C@@H]2C[C@H]3CC[C@@H](C2)N3CC2CC2)c1" ?
### Response > 30 µM

====

target or test system: Mu-type opioid receptor (Homo sapiens, UniProt P35372)
Sequence (P35372 whole entry): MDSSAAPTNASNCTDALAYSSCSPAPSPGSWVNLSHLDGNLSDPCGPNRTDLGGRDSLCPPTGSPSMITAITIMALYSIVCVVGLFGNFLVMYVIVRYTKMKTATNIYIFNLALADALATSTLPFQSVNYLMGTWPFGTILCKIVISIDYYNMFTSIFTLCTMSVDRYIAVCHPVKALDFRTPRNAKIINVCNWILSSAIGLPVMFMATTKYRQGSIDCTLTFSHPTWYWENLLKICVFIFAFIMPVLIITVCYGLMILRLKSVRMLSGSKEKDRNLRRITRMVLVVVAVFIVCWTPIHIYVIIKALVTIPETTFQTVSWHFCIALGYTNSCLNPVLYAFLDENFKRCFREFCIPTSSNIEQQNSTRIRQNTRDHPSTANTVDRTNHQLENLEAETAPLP
assay method text: Antagonist activity at human mu opioid receptor assessed as inhibition of DAMGO-stimulated [35S]GTPgammaS binding
I'd be grateful if you could share measured IC50 for these entries.

### Prompt IC50 of "C[C@@H](c1ccccc1)N1[C@@H]2CC[C@H]1C[C@H](Oc1cccc(C(N)=O)c1)C2" on Mu-type opioid receptor (Homo sapiens, UniProt P35372)?
### Response > 30 µM

### Prompt What do you get for CC(c1ccncc1)N1[C@@H]2CC[C@H]1C[C@H](Oc1cccc(C(N)=O)c1)C2 (some centres undefined) ?
### Response > 30 µM

### Prompt What do you get for "NC(=O)c1cccc(OC2CCN(Cc3ccccc3)CC2)c1" ?
### Response > 30 µM

### Prompt What do you get for "C[C@H](c1ccccc1)N1[C@@H]2CC[C@H]1C[C@H](Oc1cccc(C(N)=O)c1)C2" ?
### Response > 24.4 µM
